- Tested on: DENV-4 strain H241
- TEST METHOD NOTES: Tetravalent RT-qPCR assay, serotype 4
- Format: cell-based, Dengue virus
- DETAILS: RT-qPCR serotype 4 H241, Vero cells
pEC50: −log10 of the molar value.
Is pEC50 at least 8? Then 1.0. If not, 0.0.

Q: Is the recorded value of pEC50 equal to or greater than 8 for this compound? COc1cc(NC(C(=O)N2CCc3ccc(OC(F)(F)F)cc32)c2ccc(Cl)cc2)cc(OCC2(F)CC2C(=O)O)c1 (stereo not drawn) [Compound 29BB]
Result: 1.0

Q: Is the recorded value of pEC50 equal to or greater than 8 for this compound? COc1cc(NC(C(=O)N2CCc3cc(OC)c(C(F)(F)F)cc32)c2ccc(Cl)cc2)cc(OCCC(C)C(=O)O)c1 (single isomer, unassigned) [Compound 20C]
Result: 0.0

Q: Is the recorded value of pEC50 equal to or greater than 8 for this compound? COc1cc(NC(C(=O)N2CCc3ccc(OC(F)(F)F)cc32)c2ccc(Cl)cc2)cc(OC2CC(C(=O)O)C2)c1 (stereo not drawn) [Compound 8B]
Result: 1.0

Q: Is the recorded value of pEC50 equal to or greater than 8 for this compound? COc1cc(NC(C(=O)N2CCc3ccc(OC(F)(F)F)cc32)c2ccc(Cl)cc2OC)cc(OCC2CC2C(=O)O)c1 (stereo not drawn) [Compound 19AB]
Result: 1.0

* * *

- System: Vero cells
- DETAILS: African green monkey
RESULT TYPE: CC50 (µM)
Kindly provide the numeric value in µM only, without the unit symbol.

Entry COc1cc(NC(C(=O)N2CCc3cc(F)c(OC(F)(F)F)cc32)c2ccc(Cl)cc2)cc(OCC2CC(C(=O)O)C2)c1 (stereo not drawn) [Compound 31B] ; CC50 = 12

Entry COc1cc(NC(C(=O)N2CCc3cc(OC)c(Cl)cc32)c2ccc(Cl)cc2)cc(OC2CC(C(=O)O)C2)c1 (single isomer, unassigned) [Compound 32B] ; CC50 = 14

Entry COc1cc(NC(C(=O)N2CCc3ccc(OC(F)(F)F)cc32)c2ccc(Cl)cc2)cc(OCC2CC(C(=O)O)C2)c1 (stereo not drawn) [Compound 11A] ; CC50 = 10

Entry COc1cc(NC2CC(C(=O)O)C2)cc(NC(C(=O)N2CCc3ccc(OC(F)(F)F)cc32)c2ccc(Cl)cc2)c1 (single isomer, unassigned) [Compound 33B] ; CC50 = 14

Entry COc1cc(NC(C(=O)N2CCc3ccc(OC(F)(F)F)cc32)c2ccc(Cl)cc2)cc(OCCC(C)C(=O)O)c1 (single isomer, unassigned) [Compound 1D] ; CC50 = 12

Entry COc1cc(NC(C(=O)N2CCc3ccc(OC(F)(F)F)cc32)c2ccc(Cl)cc2)cc(OCCCCC(=O)O)c1 (single isomer, unassigned) [Compound 13B] ; CC50 = 12

Entry COc1cc(NC(C(=O)N2CCc3cc(OC)c(C(F)(F)F)cc32)c2ccc(Cl)cc2)cc(OCC2CC(C(=O)O)C2)c1 (stereo not drawn) [Compound 24A] ; CC50 = 11

Entry COc1cc(NC(C(=O)N2CCc3ccc(OC(F)(F)F)cc32)c2ccc(Cl)cc2)cc(OCCC(C)C(=O)O)c1 (single isomer, unassigned) [Compound 1B] ; CC50 = 10

Entry COc1cc(NC(C(=O)N2CCc3ccc(OC(F)(F)F)cc32)c2ccc(Cl)cc2)cc(OC2CC(C(=O)O)C2)c1 (stereo not drawn) [Compound 8] ; CC50 = 13

Entry COc1cc(NC(C(=O)N2CCc3ccc(OC(F)(F)F)cc32)c2ccc(Cl)cc2)cc(OCCC(=O)O)c1 (single isomer, unassigned) [Compound 12B] ; CC50 = 14

Entry COc1cc(NC(C(=O)N2CCc3ccc(OC(F)(F)F)cc32)c2ccc(Cl)cc2)cc(OC23CC(C(=O)O)(C2)C3)c1 (single isomer, unassigned) ; CC50 = 12

Entry COc1cc(CCCC(=O)O)cc(NC(C(=O)N2CCc3ccc(OC(F)(F)F)cc32)c2ccc(Cl)cc2)c1 (single isomer, unassigned) [Compound 15B] ; CC50 = 12
